src = patent US20240287172A1

# target-desc: T1, hiR2-FL-I566E-T7 (human, UniProt Q6PJF5 1-856)
# T1 construct: on MEF-DKO cells; also called hiR2-FL-1566E-T7
# T1 sequence: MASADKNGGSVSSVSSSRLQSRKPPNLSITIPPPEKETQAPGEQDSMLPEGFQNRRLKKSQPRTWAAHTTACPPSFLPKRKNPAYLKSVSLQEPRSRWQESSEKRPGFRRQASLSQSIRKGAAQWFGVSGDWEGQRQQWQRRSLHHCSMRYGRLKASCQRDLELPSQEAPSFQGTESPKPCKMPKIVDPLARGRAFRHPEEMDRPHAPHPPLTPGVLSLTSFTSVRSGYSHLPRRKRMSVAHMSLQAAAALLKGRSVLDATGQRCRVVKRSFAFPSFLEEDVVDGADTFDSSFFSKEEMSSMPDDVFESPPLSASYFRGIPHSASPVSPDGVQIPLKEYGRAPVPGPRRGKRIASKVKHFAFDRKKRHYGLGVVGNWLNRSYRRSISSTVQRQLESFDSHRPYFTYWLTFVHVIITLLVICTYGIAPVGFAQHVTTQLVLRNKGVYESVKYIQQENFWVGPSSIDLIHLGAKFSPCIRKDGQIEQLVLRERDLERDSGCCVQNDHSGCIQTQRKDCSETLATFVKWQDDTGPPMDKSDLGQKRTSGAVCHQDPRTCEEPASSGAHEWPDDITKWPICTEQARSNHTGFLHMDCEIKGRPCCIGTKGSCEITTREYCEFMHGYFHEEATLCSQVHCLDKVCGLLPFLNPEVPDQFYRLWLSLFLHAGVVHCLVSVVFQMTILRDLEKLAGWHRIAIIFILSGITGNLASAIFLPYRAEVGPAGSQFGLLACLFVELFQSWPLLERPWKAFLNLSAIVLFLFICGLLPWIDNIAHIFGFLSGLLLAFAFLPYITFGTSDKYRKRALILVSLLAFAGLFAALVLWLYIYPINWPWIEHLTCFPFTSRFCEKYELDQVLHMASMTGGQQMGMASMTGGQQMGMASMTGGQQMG
# assay-explanation: FACS, MEF-DKO cells, 3 µg/ml
parameter-measured: loss of binding vs wild type

Reference set, count: 6
antibody 42 (antibody, V domains shown, mouse IgG, kappa light chain; also called clone #42; purified antibody 42) VH: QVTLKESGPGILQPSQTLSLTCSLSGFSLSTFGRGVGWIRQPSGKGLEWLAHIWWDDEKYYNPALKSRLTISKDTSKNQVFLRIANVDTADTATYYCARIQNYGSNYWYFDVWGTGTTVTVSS VL: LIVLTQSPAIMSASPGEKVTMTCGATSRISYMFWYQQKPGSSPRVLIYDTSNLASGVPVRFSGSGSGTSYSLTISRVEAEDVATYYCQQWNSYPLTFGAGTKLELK    ≥ 60%
antibody 34 (antibody, V domains shown, mouse IgG, kappa light chain; also called clone #34; purified antibody 34) VH: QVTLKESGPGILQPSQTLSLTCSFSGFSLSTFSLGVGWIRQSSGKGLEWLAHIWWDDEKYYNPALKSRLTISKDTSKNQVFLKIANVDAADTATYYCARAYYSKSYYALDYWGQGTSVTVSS VL: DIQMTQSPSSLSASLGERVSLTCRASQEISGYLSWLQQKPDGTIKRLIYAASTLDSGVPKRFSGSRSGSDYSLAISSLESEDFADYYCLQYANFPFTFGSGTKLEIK    ≥ 60%
antibody 43 (antibody, V domains shown, mouse IgG, kappa light chain; also called clone #43; purified antibody 43) VH: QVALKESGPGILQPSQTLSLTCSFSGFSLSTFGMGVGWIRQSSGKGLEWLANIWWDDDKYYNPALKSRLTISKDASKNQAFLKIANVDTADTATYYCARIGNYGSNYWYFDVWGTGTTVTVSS VL: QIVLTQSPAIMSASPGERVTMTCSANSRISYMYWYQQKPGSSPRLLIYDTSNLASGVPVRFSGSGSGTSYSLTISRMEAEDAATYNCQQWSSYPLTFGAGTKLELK    ≥ 60%
antibody 44 (antibody, V domains shown, mouse IgG, kappa light chain; also called clone #44; purified antibody 44) VH: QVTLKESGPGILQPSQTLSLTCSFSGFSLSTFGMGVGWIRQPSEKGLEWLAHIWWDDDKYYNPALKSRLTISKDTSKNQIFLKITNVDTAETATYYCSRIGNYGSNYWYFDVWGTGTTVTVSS VL: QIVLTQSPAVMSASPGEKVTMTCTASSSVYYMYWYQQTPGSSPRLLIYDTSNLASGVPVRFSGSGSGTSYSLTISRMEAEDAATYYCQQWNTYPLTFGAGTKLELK    ≥ 60%
antibody 3 (antibody, V domains shown, mouse IgG, kappa light chain; also called clone #3; purified antibody 3) VH: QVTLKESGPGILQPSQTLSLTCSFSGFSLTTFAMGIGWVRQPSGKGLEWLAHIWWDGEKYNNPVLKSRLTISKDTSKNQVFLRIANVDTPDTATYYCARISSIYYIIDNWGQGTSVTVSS VL: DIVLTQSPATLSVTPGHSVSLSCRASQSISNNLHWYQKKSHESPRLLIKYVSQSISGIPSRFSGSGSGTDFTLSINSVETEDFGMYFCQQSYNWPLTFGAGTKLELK    ≥ 30%
antibody 5 (antibody, V domains shown, mouse IgG, kappa light chain; also called clone #5; purified antibody 5) VH: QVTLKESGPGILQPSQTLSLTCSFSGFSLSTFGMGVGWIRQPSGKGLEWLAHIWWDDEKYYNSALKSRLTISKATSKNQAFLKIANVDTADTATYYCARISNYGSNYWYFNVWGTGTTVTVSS VL: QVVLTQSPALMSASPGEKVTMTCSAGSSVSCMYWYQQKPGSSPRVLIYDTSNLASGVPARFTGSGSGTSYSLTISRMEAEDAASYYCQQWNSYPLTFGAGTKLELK    ≥ 95%

// moving on: another record for loss of binding vs wild type
Quote loss of binding vs wild type reported for antibody 22 (antibody, V domains shown, mouse IgG, kappa light chain; also called clone #22; purified antibody 22) VH: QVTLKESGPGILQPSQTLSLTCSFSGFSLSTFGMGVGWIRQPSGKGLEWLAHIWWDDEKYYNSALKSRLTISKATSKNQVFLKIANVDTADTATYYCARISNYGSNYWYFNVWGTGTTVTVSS VL: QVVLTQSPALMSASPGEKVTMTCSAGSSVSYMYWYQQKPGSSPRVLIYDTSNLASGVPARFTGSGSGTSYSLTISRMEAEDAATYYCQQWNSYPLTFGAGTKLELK please. ≥ 60%
